conditions: in ethyl acetate, 287.15 K
Endpoint Name: solubility (mole fraction)
Answer with a bare number; do not write a unit.

# solubility (mole fraction) (molecule: O=C1Cc2ccccc2N1 ) is 0.141

----------
details: in acetonitrile, 315.35 K
Endpoint Name: solubility (mole fraction)

# solubility (mole fraction) (compound: O=C1Cc2ccccc2N1 ) is 0.171

----------
settings: in ethanol, 291.95 K
Endpoint Name: solubility (mole fraction)
Answer with a bare number; do not write a unit.

# solubility (mole fraction) (molecule: O=C1Cc2ccccc2N1 ) is 0.00842

----------
settings: in isopropanol, 333.35 K
Endpoint Name: solubility (mole fraction)
Answer with a bare number; do not write a unit.

# solubility (mole fraction) (compound: O=C1Cc2ccccc2N1 ) is 0.0443

----------
conditions: in dichloromethane, 288.15 K
Endpoint Name: solubility (mole fraction)
Answer with a bare number; do not write a unit.

# solubility (mole fraction) (molecule: O=C1Cc2ccccc2N1 ) is 0.0353

----------
details: in 1,4-dioxane, 304.15 K
Endpoint Name: solubility (mole fraction)
Answer with a bare number; do not write a unit.

# solubility (mole fraction) (molecule: O=C1Cc2ccccc2N1 ) is 0.394

----------
conditions: in ethanol, 318.05 K
Endpoint Name: solubility (mole fraction)
Answer with a bare number; do not write a unit.

# solubility (mole fraction) (compound: O=C1Cc2ccccc2N1 ) is 0.0458

----------
conditions: in dichloromethane, 304.15 K
Endpoint Name: solubility (mole fraction)
Answer with a bare number; do not write a unit.

# solubility (mole fraction) (compound: O=C1Cc2ccccc2N1 ) is 0.0485
